src = ChEMBL document CHEMBL1201862

For each entry below, report its GI50 value.
# value in µM; strip the unit string

Q: State its GI50 on HCT-15: "O=C(c1ccc(Cl)cc1)N(C(=O)N1CCC(c2ccccc2)CC1)c1ccccc1"
Ans: 15

Q: Form: Entry = "CC(C)(C)c1ccc(OCCOCCOc2ccc(C(C)(C)C)cc2S(=O)(=O)Nc2ccc([N+](=O)[O-])cc2)c(S(=O)(=O)Nc2ccc([N+](=O)[O-])cc2)c1" | System = HCT-15 | GI50 = ____
Ans: 7.69

Q: API: value(readout= GI50, system= HCT-15, query= COC1=CC(=O)c2c(cc(COP(=O)(OCC3OC(n4cc(F)c(=O)[nH]c4=O)CC3O)N(C)CCCCCl)n2C)C1=O (configuration not stated) )
Ans: 7.55
